system: T1, Ara h 2 (peanut, UniProt Q6PSU2 23-172, 4-hydroxyproline at positions 67, 74, and 86; biotinylated in the BLI assays)
T1 construct: BLI: biotinylated (native) Ara h 2 on streptavidin sensors; also called conglutin-7; peanut allergen
T1 sequence: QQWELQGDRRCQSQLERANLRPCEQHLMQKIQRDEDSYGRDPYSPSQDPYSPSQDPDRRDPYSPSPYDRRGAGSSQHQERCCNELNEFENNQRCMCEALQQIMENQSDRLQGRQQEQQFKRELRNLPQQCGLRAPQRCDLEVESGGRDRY
measurement description: epitope bin summary

binder: 13FU1P1A4 (antibody, IgG1, V domains shown, recombinant IgG1) VH: VQLVESGGTLGQPGGSLRLSCTASGFTFNRFAINWVRQAPGKGLEWVAAISGTGAVTYYADSVEGRFSISRENSNNTVFLEMNNLRGEDTAVYFCAKDRTPVTNYYGMDVWGQGTTVTVSS VL: TQSPSSLSASVGDRVIITCRGSQTIDNYLNWYQQKPGKAPRLLISAASSLQGGVPSRFSGSGYGTDFTLTISSLQPEDFATYYCQQTSSTPYTFGQGTKVEIK
binding result: binds
--
binder: 15FU1P3A1 (antibody, IgG1, V domains shown, recombinant IgG1) VH: LVQSGAEVKKPGASVKVSCKASGYTFTRYDINWVRQATGQGLEWMGWMNPKSGETGYAQKFHGRVIMSWNTSISTAYMELSSLRSEDTAVYYCTRGVDSGVWGQGTTVTVSS VL: TQSPDSLAVSLGERATINCKSSQSVLDSSNNKKFLAWFQQKPGQRPKLLIYWASTRESGVPDRFTGSGSGTDFTLTISSLQAEDVAVYYCQQYYSPPHTFGQGTKLEIK
binding result: binds
--
binder: 89BU7P1B10 (antibody, IgG1, V domains shown, recombinant IgG1) VH: QESGPGLVKPSETLSLTCTVSGGSIGRHYWSWIRQPPGKGLEWIAYIYDSGSTKYNPSLESRVTISEDTSQNQFSLKLTSVTAADTAIYYCARHNAPYGGNSDDYFEFWGPGTLVTVSS VL: TQSPSSLSASVGDRVTITCRANETISDYLNWYQGKPGTAPKPLIYAASSLQSGVPSRFSGSGSETYFTLTISSLQPEDFATYYCQQSYSVPLTFGGGTKVESK
binding result: binds

FYI, the data here is from patent US20240175877A1.
